Reported cell viability values for a set of compounds
System: U2OS
Assay: cell viability relative to DMSO; higher = less toxic
Details: 72 h; 1000 nM
# output: bare number, implied unit %

Ask | Hello, I am looking for reported cell viability with U2OS for "CN1C(=O)N[C@H](Cc2c[nH]c3c(Cl)cccc23)C1=O" . Could you help?
Reply | 107

Ask | Hello, I am looking for reported cell viability with U2OS for C/C(=C\C(N)C(=O)O)CP(=O)(O)O (configuration not stated) . Could you help?
Reply | 97.1

Ask | Hello, I am looking for reported cell viability with U2OS for Cc1ncc(COP(=O)([O-])[O-])c(CN(CCN(CC(=O)O)Cc2c(COP(=O)([O-])O)cnc(C)c2O)CC(=O)O)c1O.[Mn].[Na+].[Na+].[Na+] [Mangafodipir (trisodium)] . Could you help?
Reply | 93.4

Ask | Hello, I am looking for reported cell viability with U2OS for "C[C@@H](CN)CC(=O)O" . Could you help?
Reply | 103

Ask | Hello, I am looking for reported cell viability with U2OS for O=C(O)CCCCC(CCSCc1ccccc1)SCc1ccccc1 (configuration not stated) . Could you help?
Reply | 96.4

Ask | Hello, I am looking for reported cell viability with U2OS for "Cc1cccc(COc2cccc(/C=C3\C(=O)NN(c4ccccc4)C3=O)c2)c1" . Could you help?
Reply | 93.6

Ask | Hello, I am looking for reported cell viability with U2OS for "On1ncc(C2CCNCC2)c1-c1cccc(-c2ccccc2)c1" . Could you help?
Reply | 109

Provenance of the data: the supplement of paper PMC13380429
